tested on: SN12C renal; assay: NCI tumour cell line growth inhibition, 48 h
# key: entry, value: TGI
experimental-endpoint: TGI

molecule: O=C(O)CCc1nc2cc3ccccc3cc2[nH]c1=O
target-under-test: SN12C renal
experimental-endpoint: TGI
test-result: > 100 µM
--
molecule: COc1cc2c(cc1OCCCCN1CCN(CCCCOc3cc4c(cc3OC)C(=O)N3CCC[C@H]3C=N4)CC1)N=C[C@@H]1CCCN1C2=O
target-under-test: SN12C renal
experimental-endpoint: TGI
test-result: 1.1 µM
--
molecule: CC(=O)Nc1nnc(S(=O)(=O)NC(=S)Nc2ccc(Cl)cc2)s1
target-under-test: SN12C renal
experimental-endpoint: TGI
test-result: > 100 µM
--
molecule: Cn1c(=O)sc2cc(C(=S)N3CCN(c4ccccc4)CC3)ccc21
target-under-test: SN12C renal
experimental-endpoint: TGI
test-result: > 100 µM
--
molecule: O=C1NC(c2ccccc2)N=C2Oc3ccccc3C=C12 (stereo not drawn)
target-under-test: SN12C renal
experimental-endpoint: TGI
test-result: > 100 µM
--
molecule: Cc1cc(Cl)ccc1Nc1nc(C(F)(F)F)ccc1C(=O)Nc1cccc(C(F)(F)F)c1
target-under-test: SN12C renal
experimental-endpoint: TGI
test-result: 11.6 µM
--
molecule: Oc1ccc(Cn2c(-c3ccc(O)cc3)nc3ccccc32)cc1
target-under-test: SN12C renal
experimental-endpoint: TGI
test-result: > 100 µM
--
molecule: CC1=C(C(=O)NC(C)(C)C)CC(C(=O)NC(C)(C)C)C(C)N1 (stereo not drawn)
target-under-test: SN12C renal
experimental-endpoint: TGI
test-result: > 100 µM

====

system: MDA-MB-231 breast; test: NCI tumour cell line growth inhibition, 48 h
# key: entry, value: TGI
experimental-endpoint: TGI

molecule: COC1OC(C(C)O)C2OC(C)(C)OC12 (stereo unspecified)
test-result: > 100 µM
--
molecule: Cn1ncnc1C1c2n[nH]c(=O)c3cc(F)cc(c23)NC1c1ccc(F)cc1 (stereo unspecified)
test-result: > 100 µM
--
molecule: COc1ccc(CN=C(N)N=C(N)N)cc1OC
test-result: > 1000 µM
--
molecule: COC(=O)[C@@H]1[C@H](O)CC[C@H]2[C@@]1(C)CC[C@@H](C)[C@]2(COC(C)=O)CC(=O)c1ccoc1
test-result: > 50 µM
--
molecule: COc1ccccc1N1C(=O)CC(=O)N(C(=O)CCCCCCCCC(=O)N2C(=O)CC(=O)N(c3ccccc3OC)C2=S)C1=S
test-result: > 100 µM
--
molecule: Cc1ncc(CO)c(C=NCCCCCCN=Cc2c(CO)cnc(C)c2O)c1O
test-result: > 100 µM
--
molecule: c1ccc(CSC(SCc2ccccc2)c2ccc3c(c2)OCO3)cc1
test-result: > 10 µM
--
molecule: CN(C)N=Nc1nn(C(=O)Nc2ccc(Cc3ccccc3)cc2)c2ccccc12
test-result: > 100 µM
--
molecule: CC1=NN(C(=O)c2nn(-c3ccc(Cl)cc3)cc2O)C(=O)C1
test-result: > 100 µM
--
molecule: c1cc(C[S+]2CCCC2)oc1C[S+]1CCCC1
test-result: > 100 µM
--
molecule: COc1cc(-c2oc3c(OC)c(O)cc(O)c3c(=O)c2OC)ccc1O
test-result: > 100 µM

====

test system: CAKI-1 renal; assay: NCI tumour cell line growth inhibition, 48 h
# key: entry, value: TGI

compound: Cc1cc(C)nc(NS(=O)(=O)c2ccc(NC(=O)c3cccc4c(N)c5ccccc5nc34)cc2)n1
TGI: > 100 µM
//
compound: CN(C)N=Nc1nn(C(=O)Nc2ccc(Cc3ccccc3)cc2)c2ccccc12
TGI: > 100 µM
//
compound: NC(=S)N/N=C/c1ccc(OC(=O)COc2ccccc2Cl)cn1
TGI: > 100 µM
//
compound: O=C1Cc2ccccc2CCc2ccsc21
TGI: > 100 µM
//
compound: COC1(Cc2ccccc2)C(=O)c2ccccc2N1C(C)=O (centres undefined)
TGI: > 100 µM
//
compound: Nc1nc(NCCOCP(=O)(O)O)c(N)c(=O)[nH]1
TGI: > 100 µM
//
compound: COC1C(OC(N)=O)C(O)C(Oc2ccc3c(O)c(NC(=O)c4ccc(O)c(CC=C(C)C)c4)c(=O)oc3c2C)OC1(C)C (centres undefined)
TGI: > 100 µM
//
compound: CCOC(=O)NC(=S)NC(C)c1ccccc1 (centres undefined)
TGI: > 100 µM
//
compound: BrC1=CN2C[n+]3cc(Br)c4ccccc4c3N=C2c2ccccc21
TGI: 48.1 µM
//
compound: CCN1C(=O)CS/C1=N\NC(=O)CSc1nc2ccccc2c(=O)n1CC
TGI: > 100 µM
//
compound: COc1cc2c(cc1OCCCCN1CCN(CCCCOc3cc4c(cc3OC)C(=O)N3CCC[C@H]3C=N4)CC1)N=C[C@@H]1CCCN1C2=O
TGI: 0.182 µM
//
compound: Cc1ccccc1NC(=O)c1cc2ccccc2cc1O
TGI: 5.87 µM
//
compound: Cc1ccc(-c2c3c(N)c4c(nc3nc3c2c(C)nn3-c2ccccc2)CCC4)cc1
TGI: 16.6 µM
//
compound: O=c1oc2c(ccc3c(O)cccc32)c2c1CCCC2
TGI: > 100 µM
//
compound: CCOC(=O)C(=O)Nc1cccc(C)c1C
TGI: > 100 µM
//
compound: COC(=O)CNCC1OC2OC(C)(C)OC2C1N=[N+]=[N-] (centres undefined)
TGI: > 100 µM
//
compound: CCc1n[nH]c(=S)n1/N=C\c1ccc(-c2ccccc2[N+](=O)[O-])o1
TGI: > 100 µM
//
compound: COc1ccc(/C=C(\Cl)c2ccc(OC)cc2)cc1
TGI: > 100 µM
//
compound: COc1cc2c(cc1OCCCCCn1c3ccccc3c3ccccc31)N=C[C@@H]1CCCN1C2=O
TGI: 4.58 µM
//
compound: Nc1cc(-c2ccccc2)n(C(=O)Nc2ccc(Oc3ccccc3)cc2)n1
TGI: 77.2 µM
//
compound: COC(=O)Nc1nc2ccc(S(=O)(=O)c3ccc(NC(=O)Nc4cc(C(F)(F)F)ccc4F)cc3)cc2[nH]1
TGI: > 25 µM
//
compound: O=C1c2ccn(CCCCN(CCO)CCO)c2C(=O)c2c1c(O)c1ccccc1c2O
TGI: 21.7 µM
//
compound: O=[N+]([O-])c1ccc2[nH]c(O)c(N=NC(=S)Nc3ccccc3)c2c1
TGI: 15.2 µM
//
compound: CC(C)c1cccc(C(C)C)c1NC(=O)C(=O)C1SC(=S)NC1=O (centres undefined)
TGI: > 100 µM
//
compound: Cc1ccc(-n2cc(-c3ccc(Cl)cc3)c3c2N=CN2NC(c4cccs4)=NC32)cc1 (centres undefined)
TGI: 40.4 µM
//
compound: CCc1c2c(nc3ccc(OCc4ccc(B5OC(C)(C)C(C)(C)O5)cc4)cc13)-c1cc3c(c(=O)n1C2)COC(=O)[C@]3(O)CC
TGI: 1.22 µM
//
compound: Nc1cc(N)c(N=Nc2cccc3c(S(=O)(=O)O)cccc23)cc1N=Nc1cc([N+](=O)[O-])ccc1O
TGI: > 100 µM
//
compound: O=C(O)CCc1nc2cc3ccccc3cc2[nH]c1=O
TGI: > 100 µM
//
compound: Cc1nc(Nc2nc3ccccc3[nH]2)[nH]c(=O)c1CCO
TGI: > 100 µM
//
compound: O=C1/C(=C\c2ccccc2)c2ccccc2N1/N=C\c1ccccc1
TGI: > 100 µM
//
compound: Cc1cn2c(/C=C3/C(=O)Nc4ccccc43)c(C)nc2s1
TGI: > 100 µM
//
compound: CCCCN(CCCC)CCC(O)c1cc2ccc(C(F)(F)F)cc2c2cc(C(F)(F)F)ccc12 (centres undefined)
TGI: 9.01 µM
//
compound: Cc1ccc(S(=O)(=O)Nc2cc(Sc3ccccc3)c(O)c3ccccc23)cc1
TGI: 9.19 µM
//
compound: CC(=O)C1C(=O)C(=O)N(c2ccc(Br)cc2)C1=O (centres undefined)
TGI: > 100 µM

====

tested on: SR leukemia
Outcomes: True for active, False for inactive

smiles-representation: Nc1cc(-c2ccccc2)n(C(=O)Nc2ccc(Oc3ccccc3)cc2)n1
category-label: False
//
smiles-representation: CN(CCCN(C)CCC1CCCCC1)CCC1CCCCC1
category-label: False
//
smiles-representation: COc1cc2nc(N3CCC[C@@H](NC4=CC(=O)c5ccccc5C4=O)C3)nc(N)c2cc1OC
category-label: True
//
smiles-representation: O=C1COCCN1c1ccc(NCc2cn(C(=O)c3ccc(Cl)cc3)c3ccccc23)cc1
category-label: False

====

system: HOP-62 NSCLC; assay: NCI tumour cell line growth inhibition, 48 h
experimental-endpoint: GI50

compound: CN(C)c1ncnc2c1ccn2C1OC(CO)C(O)C1O (centres undefined)
test-result: 1.71 µM
--
compound: Nc1ccccc1C#C/C=C\C#Cc1ccccc1F
test-result: 6.66 µM
--
compound: O=C(NN1C(=O)CSC12CCC(c1ccccc1)CC2)c1[nH]c2ccc(F)cc2c1-c1ccccc1 (centres undefined)
test-result: 18.3 µM
--
compound: Oc1ccc(O)c2c1C1(Cl)C(Cl)=C(Cl)C2(Cl)C1(Cl)Cl
test-result: 8.27 µM
